# Target under test: T1, Boi2, P39969
# T1 sequence (P39969 32-116, looked up): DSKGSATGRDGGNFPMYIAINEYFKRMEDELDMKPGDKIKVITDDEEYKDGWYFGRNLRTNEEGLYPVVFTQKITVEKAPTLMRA
# Assay summary: SPOT array
# Assay context: median of control spots 1161
Collected SPOT intensity values appear next to each entry.
Property name: SPOT intensity

>>> df
             binder   property_name  readout_value
 0  GRSRLFPHSPLGRSS  SPOT intensity              1
 1  EVTPKVPERPSRRKT  SPOT intensity              2
 2  VGFRLALKFPSRITG  SPOT intensity             70
 3  QQEQNTPPLPPKPKS  SPOT intensity              0
 4  RKLRTVPGVPLIHLT  SPOT intensity              0
 5  DDEDVPPQLPTRTKS  SPOT intensity              1
 6  MSPLGAPPPPPHKDH  SPOT intensity              0
 7  RVTRKRPREPKSTND  SPOT intensity              2
 8  FHLNPKRSAVLYDRP  SPOT intensity              0
 9  VAPPPLPNRQLPNLD  SPOT intensity              0
10  RRLRDKYKLPIVDAD  SPOT intensity              0
11  MARRRLPDRPPNGIG  SPOT intensity              0
12  HPRFVSPRIPSRIVK  SPOT intensity              0
13  APKREAPKPPANTSP  SPOT intensity              0
14  IKKRNKIRLPSGSPE  SPOT intensity              3
